Molecular target: T1, mPD1 (soluble, ELISA of Examples 20 and 24) (mouse, UniProt Q02242 25-167, limits assumed)
T1 construct: also called Biotin-mPD1
T1 sequence (looked up): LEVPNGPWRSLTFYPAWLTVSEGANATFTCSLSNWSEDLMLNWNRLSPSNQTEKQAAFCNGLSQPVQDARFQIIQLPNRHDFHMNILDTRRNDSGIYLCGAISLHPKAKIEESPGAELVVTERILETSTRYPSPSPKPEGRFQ
Assay: ELISA, mPD1
pEC50: −log10 of the molar value.
The threshold is inclusive: pEC50 of exactly 9 counts as yes; values below receive no.

m3A7 (antibody, V domains shown, R3A9 derivative; also called 7115C) VH: QVQLVQSGAEVKKPGASVKVSCKASGHTFTSYYIHWVRQAPGQGLEWMGIINPSGGSTSYAQKFQGRVTMTRDTSTSTVYMELSSLRSEDTAVYYCARDRAYGGAGDYWGQGTLVTVSS VL: DIQMTQSPSSLSASVGDRVTITCRASRSISNWLAWYQQKPGKAPKLLIYAASSLQSGVPSRFSGSGSGTDFTLTISSLQPEDFATYYCQQSYSAPVTFGQGTKVEIK    yes
m4D1 (antibody, V domains shown, R3A9 derivative) VH: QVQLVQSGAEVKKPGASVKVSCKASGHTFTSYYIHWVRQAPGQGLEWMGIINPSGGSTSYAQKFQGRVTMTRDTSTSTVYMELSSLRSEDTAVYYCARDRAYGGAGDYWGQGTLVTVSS VL: DIQMTQSPSSLSASVGDRVTITCRASQSISAWLAWYQQKPGKAPKLLIYKASSLESGVPSRFSGSGSGTDFTLTISSLQPEDFATYYCQQSYSPPATFGGGTKVEIK    no
m2A1 (antibody, V domains shown, R3A9 derivative; also called m2AM (apparent misprint)) VH: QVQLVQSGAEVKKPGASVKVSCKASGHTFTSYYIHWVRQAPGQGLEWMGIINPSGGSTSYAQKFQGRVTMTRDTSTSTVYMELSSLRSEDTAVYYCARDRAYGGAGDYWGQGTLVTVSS VL: DIQMTQSPSSLSASVGDRVTITCRASRGISSWLAWYQQKPGKAPKLLIYAASSLQSGVPSRFSGSGSGTDFTLTISSLQPEDFATYYCQQSYSPPWTFGQGTKVEIK    yes
